Reference for the values: BindingDB's records for doi:10.1021/jm060797q

Assay: Antagonist activity against 1-alpha,25-dihydroxy vitamin D3-induced HL60 cell differentiation by NBT reduction method
Collected IC50 values appear next to each entry.

Structure smiles string: C=C1C(=O)O[C@H](C[C@@H](C)[C@H]2CC[C@H]3/C(=C/C=C4/C[C@@H](O)[C@H](C)[C@H](O)C4=C)CCC[C@]23C)[C@@H]1C
IC50, nM: 8.1
//
Structure smiles string: C=C1/C(=C\C=C2/CCC[C@]3(C)[C@@H]([C@H](C)C[C@@H]4OC(=O)C(=C)[C@@H]4CCCC)CC[C@@H]23)C[C@@H](O)[C@H](CCCO)[C@@H]1O
IC50, nM: 8.8
//
Structure smiles string: C=C1/C(=C\C=C2/CCC[C@]3(C)[C@@H]([C@H](C)C[C@@H]4OC(=O)C(=C)[C@@H]4CC(C)C)CC[C@@H]23)C[C@@H](O)[C@H](C)[C@@H]1O
IC50, nM: 11
//
Structure smiles string: C=C1/C(=C\C=C2/CCC[C@]3(C)[C@@H]([C@H](C)C[C@@H]4OC(=O)C(=C)[C@@H]4C)CC[C@@H]23)C[C@@H](O)[C@H](CCCO)[C@@H]1O
IC50, nM: 6.2
//
Structure smiles string: C=C1/C(=C\C=C2/CCC[C@]3(C)[C@@H]([C@H](C)C[C@@H]4OC(=O)C(=C)[C@H]4CC)CC[C@@H]23)C[C@@H](O)[C@H](C)[C@@H]1O
IC50, nM: 6.7
//
Structure smiles string: C=C1C(=O)O[C@@H](C[C@@H](C)[C@H]2CC[C@H]3/C(=C/C=C4/C[C@@H](O)C[C@H](O)C4=C)CCC[C@]23C)[C@@H]1CCC
IC50, nM: 6
//
Structure smiles string: C=C1C(=O)O[C@@H](C[C@@H](C)[C@H]2CC[C@H]3/C(=C/C=C4/C[C@@H](O)C[C@H](O)C4=C)CCC[C@]23C)[C@@H]1C
IC50, nM: 7.7
//
Structure smiles string: C=C1/C(=C\C=C2/CCC[C@]3(C)[C@@H]([C@H](C)C[C@@H]4OC(=O)C(=C)[C@@H]4C)CC[C@@H]23)C[C@@H](O)C[C@@H]1O
IC50, nM: 7.7
//
Structure smiles string: C=C1/C(=C\C=C2/CCC[C@]3(C)[C@@H]([C@H](C)C[C@H]4OC(=O)C(=C)[C@H]4CC(C)C)CC[C@@H]23)C[C@@H](O)[C@H](CCCO)[C@@H]1O
IC50, nM: 9.3
//
Structure smiles string: C=C1/C(=C\C=C2/CCC[C@]3(C)[C@@H]([C@H](C)C[C@@H]4OC(=O)C(=C)[C@@H]4CC)CC[C@@H]23)C[C@@H](O)[C@H](CCCO)[C@@H]1O
IC50, nM: 8.4
//
Structure smiles string: C=C1C(=O)O[C@H](C[C@@H](C)[C@H]2CC[C@H]3/C(=C/C=C4/C[C@@H](O)C[C@H](O)C4=C)CCC[C@]23C)[C@@H]1CCC
IC50, nM: 6
//
Structure smiles string: C=C1/C(=C\C=C2/CCC[C@]3(C)[C@@H]([C@H](C)C[C@@H]4OC(=O)C(=C)[C@@H]4CCC)CC[C@@H]23)C[C@@H](O)[C@H](OCCCO)[C@@H]1O
IC50, nM: 6.3
